# System: MV4-11
# ASSAY TEXT: Cytotoxicity towards MV4-11 cell line
# Type: cell-based
# MEASUREMENT CONTEXT: Homo sapiens
# Method: In various embodiments, the compounds of the disclosure are those in which show IC50 values in cytotoxicity experiments towards cells lines MV4-11 and U937 of >20 μM, 10-20 μM, 5-10 μM, 1-5 μM, or <1 μM. The IC50 is divided into 5 categories: A<1 μM, B 1-5 μM, C 5-10 μM, D 10-20 μM, and E>20 μM.
QUANTITY NAME: IC50

CHEMICAL STRING: COc1ccc(C#Cc2cc(C(=O)NCCCc3cn[nH]c3)ccc2N2CCOCC2)cn1
ENDPOINT RESULT: < 1000 nM

CHEMICAL STRING: Cc1ccn(CCNC(=O)c2ccc(-n3cccn3)c(C#Cc3ccccc3)c2)n1
ENDPOINT RESULT: > 20000 nM

CHEMICAL STRING: O=C(NCCCn1ccnc1)c1ccc(Oc2ccccc2)c(C#Cc2ccccc2)c1
ENDPOINT RESULT: < 1000 nM

CHEMICAL STRING: C[C@@H]1CN(c2ncc(C(=O)NC/C=C/c3cn[nH]c3)cc2C#Cc2ccc(F)cc2)C[C@H](C)O1
ENDPOINT RESULT: < 1000 nM

CHEMICAL STRING: Cc1ccc(C#Cc2cc(C(=O)NCCCc3cn[nH]c3)ccc2-n2cccn2)cc1
ENDPOINT RESULT: < 1000 nM

Readout IC50 for `CC(C)(C)OC(=O)N1CCN(c2ccc(C(=O)NCCCc3cn[nH]c3)cc2C#Cc2ccc(F)cc2)CC1` , test system MV4-11, was < 1000 nM

Readout IC50 for `C[C@@H]1CN(c2ncc(C(=O)NC/C=C/c3cn[nH]c3)cc2C#Cc2ccc(Cl)cc2)C[C@H](C)O1` , test system MV4-11, was < 1000 nM

Readout IC50 for `COc1cccc(C#Cc2cc(C(=O)NCCCc3cn[nH]c3)ccc2-n2cccn2)c1` , test system MV4-11, was < 1000 nM

Readout IC50 for `O=C(NCCCn1ccnc1)c1ccc(-n2cccn2)c(C#Cc2ccc(Cl)cc2)c1` , test system MV4-11, was < 1000 nM

Readout IC50 for `O=C(NCCCc1cn[nH]c1)c1ccc(-n2cccn2)c(C#Cc2ccncc2)c1` , test system MV4-11, was < 1000 nM

Readout IC50 for `O=C(NCCn1ccnc1)c1ccc(-n2cccn2)c(C#Cc2ccccc2)c1` , test system MV4-11, was > 20000 nM

Readout IC50 for `Cc1nccn1CCN(C)C(=O)c1ccc(-n2cccn2)c(C#Cc2ccccc2)c1` , test system MV4-11, was > 20000 nM

Readout IC50 for `O=C(NCCCc1cn[nH]c1)c1ccc(-c2cc[n+]([O-])cc2)c(C#Cc2ccc(F)cc2)c1` , test system MV4-11, was < 1000 nM

Readout IC50 for `Cc1n[nH]c(SCCNC(=O)c2ccc(-n3cccn3)c(C#Cc3cccnc3)c2)n1` , test system MV4-11, was > 20000 nM

Readout IC50 for `Cc1ccc(C#Cc2cc(C(=O)NCCCn3ccnc3)ccc2-n2cccn2)cc1` , test system MV4-11, was < 1000 nM

Readout IC50 for `COc1ccc(C#Cc2cc(C(=O)NCCCc3cn[nH]c3)ccc2-n2cccn2)cc1` , test system MV4-11, was < 1000 nM
